test: Metabolic stability in dog liver microsomes (DLM); format: in vitro ADME; conditions: dog LM, NADPH, read-out: intrinsic clearance

>  <Smiles Structure>
COc1ccc(CO[C@H]2CC[C@@]3(C)C(=CC[C@H]4[C@@H]5CC[C@H](C(C)=O)[C@@]5(C)CC[C@@H]43)C2)cc1

>  <Unit Abbrev>
µL/min/mg

>  <microsomal CLint>
26

$$$$

* * *

experiment: Metabolic stability in human liver microsomes (HLM); assay type: in vitro ADME; settings: human LM, NADPH
Quantity Name: half-life (h)

>  <Smiles Structure>
COc1ccc(CO[C@H]2CC[C@@]3(C)C(=CC[C@H]4[C@@H]5CC[C@H](C(C)=O)[C@@]5(C)CC[C@@H]43)C2)cc1

>  <Readout Value>
6.83

$$$$
